# Pancreas per record follows
- Test system: LNCaP tumor-transplanted mouse
- protocolText: Internal radioactivity distribution using LNCaP tumor-transplanted mouse
- Assay type: in vivo
- experimentalConditions: 4 h after administration
Express your answer in % ID/g, writing the number without its unit.

Example entries and their recorded answers appear below.
molecule	testedTarget	testValue
O=C([O-])CN(Cc1cccc(C(=O)[O-])n1)C[C@H](Cc1ccc(NC(=O)[C@H](CCCCNC(=O)CCC(=O)NCCCC[C@H](NC(=O)N[C@@H](CCC(=O)O)C(=O)O)C(=O)O)NC(=O)CCCc2ccc(I)cc2)cc1)N(CC(=O)[O-])Cc1cccc(C(=O)[O-])n1.[111In+3] [[^111In]In-Octapa-2]	LNCaP tumor-transplanted mouse	1.59
O=C([O-])CN(Cc1cccc(C(=O)[O-])n1)C[C@H](Cc1ccc(NC(=O)CCCCCNC(=O)CCC(=O)NCCCC[C@H](NC(=O)N[C@@H](CCC(=O)O)C(=O)O)C(=O)O)cc1)N(CC(=O)[O-])Cc1cccc(C(=O)[O-])n1.[111In+3] [[^111In]In-Octapa-1, reference compound]	LNCaP tumor-transplanted mouse	0.24
O=C(O)CC[C@H](NC(=O)N[C@@H](CCCCNC(=O)[C@H](Cc1ccc2ccccc2c1)NC(=O)[C@H]1CC[C@H](CNC(=O)CCC(C(=O)O)N2CCN(CC(=O)O)CCN(C(CCC(=O)N[C@@H](CCCCNC(=O)CCCc3ccc(I)cc3)C(=O)O)C(=O)O)CCN(CC(=O)O)CC2)CC1)C(=O)O)C(=O)O (some centres unmarked) [[^111In]In-PSMA-NAT-DA1, metal not drawn]	LNCaP tumor-transplanted mouse	5.85
O=C([O-])CN(CCN(CCc1ccc(NC(=O)CCCCCNC(=O)CCC(=O)NCCCC[C@H](NC(=O)N[C@@H](CCC(=O)O)C(=O)O)C(=O)O)cc1)CCN(CC(=O)[O-])Cc1cccc(C(=O)[O-])n1)Cc1cccc(C(=O)[O-])n1.[111In+3] [[^111In]In-Neunpa-1, reference compound]	LNCaP tumor-transplanted mouse	0.50

With those in mind, consider the next molecule.
Q: GET /values?readout=Pancreas&item= O=C([O-])CN1CCN(C(CCC(=O)NCCCC[C@H](NC(=O)N[C@@H](CCC(=O)O)C(=O)O)C(=O)O)C(=O)[O-])CCN(CC(=O)[O-])CCN(C(CCC(=O)Nc2ccccc2)C(=O)[O-])CC1.[111In+3] (some centres unmarked) [[^111In]In-PSMA-DB, reference compound]
Result: 0.54

---

# Muscle per record follows
- System: LNCaP tumor-transplanted mouse
- protocolText: Internal radioactivity distribution using LNCaP tumor-transplanted mouse
- Format: in vivo
- experimentalConditions: 48 h after administration
Express your answer in % ID/g, writing the number without its unit.

Example entries and their recorded answers appear below.
molecule	testedTarget	testValue
O=C([O-])CN(CCN(CCc1ccc(NC(=O)CCCCCNC(=O)CCC(=O)NCCCC[C@H](NC(=O)N[C@@H](CCC(=O)O)C(=O)O)C(=O)O)cc1)CCN(CC(=O)[O-])Cc1cccc(C(=O)[O-])n1)Cc1cccc(C(=O)[O-])n1.[111In+3] [[^111In]In-Neunpa-1, reference compound]	LNCaP tumor-transplanted mouse	0.10
O=C(O)CC[C@H](NC(=O)N[C@@H](CCCCNC(=O)[C@H](Cc1ccc2ccccc2c1)NC(=O)[C@H]1CC[C@H](CNC(=O)CCC(C(=O)O)N2CCN(CC(=O)O)CCN(C(CCC(=O)N[C@@H](CCCCNC(=O)CCCc3ccc(I)cc3)C(=O)O)C(=O)O)CCN(CC(=O)O)CC2)CC1)C(=O)O)C(=O)O (some centres unmarked) [[^111In]In-PSMA-NAT-DA1, metal not drawn]	LNCaP tumor-transplanted mouse	1.48
O=C([O-])CN(Cc1cccc(C(=O)[O-])n1)C[C@H](Cc1ccc(NC(=O)CCCCCNC(=O)CCC(=O)NCCCC[C@H](NC(=O)N[C@@H](CCC(=O)O)C(=O)O)C(=O)O)cc1)N(CC(=O)[O-])Cc1cccc(C(=O)[O-])n1.[111In+3] [[^111In]In-Octapa-1, reference compound]	LNCaP tumor-transplanted mouse	0.01
O=C([O-])CN(Cc1cccc(C(=O)[O-])n1)C[C@H](Cc1ccc(NC(=O)[C@H](CCCCNC(=O)CCC(=O)NCCCC[C@H](NC(=O)N[C@@H](CCC(=O)O)C(=O)O)C(=O)O)NC(=O)COCCOCCOCC(=O)N[C@@H](CCCCNC(=O)CCCc2ccc(I)cc2)C(=O)O)cc1)N(CC(=O)[O-])Cc1cccc(C(=O)[O-])n1.[111In+3] [[^111In]In-Octapa-3]	LNCaP tumor-transplanted mouse	0.26
O=C([O-])CN1CCN(C(CCC(=O)NCCCC[C@H](NC(=O)N[C@@H](CCC(=O)O)C(=O)O)C(=O)O)C(=O)[O-])CCN(CC(=O)[O-])CCN(C(CCC(=O)Nc2ccccc2)C(=O)[O-])CC1.[111In+3] (some centres unmarked) [[^111In]In-PSMA-DB, reference compound]	LNCaP tumor-transplanted mouse	0.15
O=C([O-])CN1CCN(C(CCC(=O)NCCCC[C@H](NC(=O)N[C@@H](CCC(=O)O)C(=O)O)C(=O)O)C(=O)[O-])CCN(CC(=O)[O-])CCN(C(CCC(=O)N[C@@H](CCCCNC(=O)CCCc2ccc(I)cc2)C(=O)O)C(=O)[O-])CC1.[111In+3] (some centres unmarked) [[^111In]In-PSMA-DA1]	LNCaP tumor-transplanted mouse	0.54

Q: GET /values?readout=Muscle&item= O=C([O-])CN(CCN(CCc1ccc(NC(=O)[C@H](CCCCNC(=O)CCC(=O)NCCCC[C@H](NC(=O)N[C@@H](CCC(=O)O)C(=O)O)C(=O)O)NC(=O)CCCc2ccc(I)cc2)cc1)CCN(CC(=O)[O-])Cc1cccc(C(=O)[O-])n1)Cc1cccc(C(=O)[O-])n1.[111In+3] [[^111In]In-Neunpa-2]
Result: 0.05

Q: Can you handle O=C([O-])CN(Cc1cccc(C(=O)[O-])n1)C[C@H](Cc1ccc(NC(=O)[C@H](CCCCNC(=O)CCC(=O)NCCCC[C@H](NC(=O)N[C@@H](CCC(=O)O)C(=O)O)C(=O)O)NC(=O)CCCc2ccc(I)cc2)cc1)N(CC(=O)[O-])Cc1cccc(C(=O)[O-])n1.[111In+3] [[^111In]In-Octapa-2] next?
Result: 0.04

Source of measurements: patent US20240174622A1
